Values compiled from the supplement of paper PMC5579334.

# Test system: HS-PSS
# measurementNotes: % inhibition of CellTiter-Glo viability at highest tested concentration (72 h), relative to DMSO and benzethonium chloride controls; higher = more inhibition
reportedEndpoint: % inhibition (%)
Numeric answer only, unit % assumed.

Answered cases to consult:
CN1CCC(CNc2ccc3ncc(-c4cccc(OC(F)(F)F)c4)n3n2)CC1 [SGI-1776] (max concentration tested 10000 nM)    101
CCN(CCO)CCCOc1ccc2c(Nc3cc(CC(=O)Nc4cccc(F)c4)[nH]n3)ncnc2c1 [AZD1152-HQPA] (max concentration tested 1000 nM)    9.86
O=C(Nc1cccc(Nc2ncc(Br)c(NCCc3cnc[nH]3)n2)c1)N1CCCC1 [BX-912] (max concentration tested 10000 nM)    44.8
C[C@@H]1COC(Nc2ccc3ncnc(Nc4ccc(OCc5nccs5)c(Cl)c4)c3c2)=N1 [Varlitinib] (max concentration tested 10000 nM)    42

For the compound shown here, CC(C)Cn1cnc2c(N)nc3ccccc3c21 [Imiquimod] (max concentration tested 2500 nM) , give the reported % inhibition. 14.8

Look up % inhibition for this compound: OC[C@H]1O[C@@H](n2cnc3c2N=CNC[C@H]3O)C[C@@H]1O [Pentostatin] (max concentration tested 10000 nM) 6.06

----------
# System: HS-PSS
# measurementNotes: drug sensitivity score (DSS, CellTiter-Glo viability, 72 h) (DSS (dimensionless)); higher = more sensitive; extreme values may be limits of the assay
reportedEndpoint: drug sensitivity score
Keep it simple and answer with nothing but the number.

OC[C@H]1O[C@@H](n2cnc3c2N=CNC[C@H]3O)C[C@@H]1O [Pentostatin] (max concentration tested 10000 nM)    0
CCc1c2c(nc3ccc(O)cc13)-c1cc3c(c(=O)n1C2)COC(=O)[C@]3(O)CC [SN-38] (max concentration tested 10000 nM)    22.9
C[C@@H](C(=O)O)c1ccc(-c2ccccc2)c(F)c1 [Tarenflurbil] (max concentration tested 10000 nM)    0

Would you mind telling me what drug sensitivity score value was observed for Clc1ccccc1C(c1ccccc1)(c1ccccc1)n1cccn1 [TRAM-34] (max concentration tested 1000 nM) ? 0.59

Requested field: drug sensitivity score. Item: COc1cc2c(NC3CCN(C(C)C)CC3)nc(N3CCC(F)(F)CC3)nc2cc1OCCCN1CCCC1 [UNC0642] (max concentration tested 10000 nM) 6.56

----------
# Test system: HS-Sch-2
# measurementNotes: drug sensitivity score (DSS, CellTiter-Glo viability, 72 h) (DSS (dimensionless)); higher = more sensitive; extreme values may be limits of the assay
Below is a list of entries, each paired with its recorded drug sensitivity score value.
// print number alone

CO[C@H]1C[C@@H]2CC[C@@H](C)[C@@](O)(O2)C(=O)C(=O)N2CCCC[C@H]2C(=O)O[C@H]([C@H](C)C[C@@H]2CC[C@@H](OCCO)[C@H](OC)C2)CC(=O)[C@H](C)/C=C(\C)[C@@H](O)[C@@H](OC)C(=O)[C@H](C)C[C@H](C)/C=C/C=C/C=C/1C [Everolimus] (max concentration tested 100 nM)    3.17

// map O=C1c2ccccc2-c2n[nH]c3cccc1c23 (max concentration tested 100000 nM) to recorded drug sensitivity score (system: HS-Sch-2) 2.29

----------
# System: HS-PSS
# measurementNotes: drug sensitivity score (DSS, CellTox-Green cytotoxicity, 72 h) (DSS (dimensionless)); higher = more cytotoxic; extreme values may be limits of the assay
reportedEndpoint: drug sensitivity score
API note: the answer field is a bare number with no unit suffix.

CCn1c(-c2nonc2N)nc2c(C#CC(C)(C)O)ncc(OC[C@H]3CCCNC3)c21 (max concentration tested 10000 nM)    0
COc1cccc2cc(-c3nc([C@H]4CC[C@H](C(=O)O)CC4)n4ncnc(N)c34)[nH]c12 [OSI-027] (max concentration tested 10000 nM)    0
CCn1c(C(=O)N(C2CC2)C2CC2)cc2c3c(ncn3C)c(Nc3cc(C)n(C)n3)nc21 (max concentration tested 10000 nM)    0
Cc1cc(Nc2cc(N3CCN(C)CC3)nc(Sc3ccc(NC(=O)C4CC4)cc3)n2)n[nH]1 [Tozasertib] (max concentration tested 10000 nM)    0
COc1cc(OC2CCN(C)CC2)ccc1Nc1ncc2c(n1)n(C1CCCC1)c(=O)n2C [AZ 3146] (max concentration tested 10000 nM)    1.72

I'm curious: which drug sensitivity score was measured for Cn1cc(C2=C(c3cn(C4CCN(Cc5ccccn5)CC4)c4ccccc34)C(=O)NC2=O)c2ccccc21 [Enzastaurin] (max concentration tested 10000 nM) tested on HS-PSS? 0
